# study system: T1, IL-18 binding protein (IL-18BP) (UniProt O95998 31-194); note: unit not given here
# T1 sequence (looked up): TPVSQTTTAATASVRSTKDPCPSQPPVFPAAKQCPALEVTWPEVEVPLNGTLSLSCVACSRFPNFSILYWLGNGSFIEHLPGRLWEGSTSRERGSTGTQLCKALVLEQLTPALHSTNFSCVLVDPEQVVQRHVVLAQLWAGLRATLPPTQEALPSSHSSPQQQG
# method notes: cell-based or functional assay
Please go through the items and note down their Activity, +100 nM BP, DF-5000003.
API doc: respond with a numeric literal and nothing else, no unit.

Given IL-18 variant E6G, D54A, S55K, T63S, N91K, Q114R (ligand) YFGKLGSKLSVIRNLNDQVLFIDQGNRPLFEDMTDSDMRDNAPRTIFIISMYKAKQPRGMAVSISVKSEKISTLSSENKIISFKEMNPPDKIKDTKSDIIFFQRSVPGHDNKMRFESSSYEGYFLASEKERDLFKLILKKEDELGDRSIMFTVQNED , state its recorded Activity, +100 nM BP, DF-5000003.
1.33

// next record IL-18 variant G3Q, E6H, S7Y, D23A, R27S, D54S, S55R, T63F, N91F, R104Q (ligand) YFQKLHYKLSVIRNLNDQVLFIAQGNSPLFEDMTDSDMRDNAPRTIFIISMYKSRQPRGMAVFISVKSEKISTLSSENKIISFKEMNPPDFIKDTKSDIIFFQQSVPGHDNKMQFESSSYEGYFLASEKERDLFKLILKKEDELGDRSIMFTVQNED
0.08

// next record IL-18 variant G3P, E6G, D54P, S55W, N91E, R104K (ligand) YFPKLGSKLSVIRNLNDQVLFIDQGNRPLFEDMTDSDMRDNAPRTIFIISMYKPWQPRGMAVTISVKSEKISTLSSENKIISFKEMNPPDEIKDTKSDIIFFQKSVPGHDNKMQFESSSYEGYFLASEKERDLFKLILKKEDELGDRSIMFTVQNED
0.1
